B1: ETS1 (parent)
chain: YVRDRADLNKDKPVIPAAALAGYT

# Variants of: B1
# assay.summary: protein stability index of a GFP-peptide fusion (GPS, HEK-293T) (PSI 1-6); higher = more stable;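 further: lentivirally expressed fusions sorted by FACS into six bins by GFP to DsRed ratio, PSI derived from sequencing read proportions per bin multiplied by bin number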
# assay.conditions: c terminus: a fixed tail appended
Answer not satisfied if protein stability index is under 3, and satisfied if it is 3 or more.

q: Kindly determine if protein stability index recorded for P13M is above or exactly 3.
a: not satisfied

q: Then this variant: L20S
a: not satisfied

q: Then what about the variant K10W ?
a: not satisfied

q: Moving on to V14L
a: not satisfied

q: What do you get for K10V ?
a: not satisfied

q: Entry to check: V2T
a: satisfied

q: Note, next up: A17M
a: not satisfied

q: Would you mind doing Y1E as well?
a: satisfied

q: And L20G ?
a: not satisfied

q: // repeat for A18K and report
a: not satisfied

q: Next: D11P
a: satisfied

q: Try this variant too: K10C
a: not satisfied

q: Also L20D ?
a: not satisfied

q: Do the same for Y23A please
a: not satisfied

q: Would you mind doing P16M as well?
a: not satisfied

q: How about V14R ?
a: not satisfied

q: Further, for V14P ?
a: not satisfied

Value source: the supplement of paper PMC10567573
